Molecular target: BRD4 BD1 protein (Homo sapiens (Human), UniProt O60885)
Assay: Fluorescence polarization binding affinity (Ki) with BRD4 BD1 protein
Details: fluorescence polarization; Ki calculated from IC50
pKi: −log10 of the molar value.
Measurement name: pKi

Compound	Measured number
Cc1nnn2c1-c1ccc(C3=CCN(C(C)C)CC3)cc1C(Nc1cccc(Cl)c1)CC2 (centres unmarked) [BH32, 2,2,2-trifluoroacetate]	6.28
Cc1nnn2c1-c1ccc(C3=CCN(C4CCCC4)CC3)cc1C(Nc1cccc(Cl)c1)CC2 (centres unmarked) [BH107, 2,2,2-trifluoroacetate]	5.76
Cc1nnn2c1-c1ccc(-c3cnn(C)c3)cc1C(Nc1ccccc1C#N)CC2 (centres unmarked) [LC136]	7.30
COc1ccc2c(c1)C(Nc1ccc(Cl)cc1)CCc1onc(C)c1-2 (centres unmarked) [FA02]	7.23
Cc1nnn2c1-c1ccc(-c3cnn(C)c3)cc1C(Oc1ccc(Cl)cc1)CC2 (centres unmarked) [BE128]	6.75
Cc1nnn2c1-c1ccc(-c3cnn(C)c3)cc1C(Nc1ccc(CCO)cc1)CC2 (centres unmarked) [LB24]	7.19
Cc1nnn2c1-c1ccc(C3=CCNCC3)cc1C(Nc1ccc(CC#N)cc1)CC2 (centres unmarked) [RC73, 2,2,2-trifluoroacetate]	5.63
Cc1nnn2c1-c1ccc(C3=CCN(C4CCCCC4)CC3)cc1C(Nc1ccc(F)c(Cl)c1)CC2 (centres unmarked) [LD76, 2,2,2-trifluoroacetate]	5.98

====

Biological target: BRD4 BD1 protein (Homo sapiens (Human))
Assay: Fluorescence polarization binding affinity (Ki) with BRD4 BD1 protein
Details: fluorescence polarization; Ki calculated from IC50
Measurement name: Ki (nM)

Molecule	Measurement name	Measured number
COc1ccc(NC2CCn3nnc(C)c3-c3ccc(C4=CCNCC4)cc32)cc1 (centres unmarked) [LC160, 2,2,2-trifluoroacetate]	Ki	2270
Cc1nnn2c1-c1ccc(-c3cnn(C)c3)cc1C(Nc1cccc(CC(=O)O)c1)CC2 (centres unmarked)	Ki	229
COc1ccc2c(c1)C(Nc1ccc(C(F)(F)F)cc1)CCc1onc(C)c1-2 (centres unmarked)	Ki	204
Cc1nnn2c1-c1ccc(C3=CCN(C4CCCCC4)CC3)cc1C(Nc1cccc(C#N)c1)CC2 (centres unmarked) [BI29, 2,2,2-trifluoroacetate]	Ki	2660
COc1ccccc1NC1CCn2nnc(C)c2-c2ccc(C3=CCNCC3)cc21 (centres unmarked) [LC158, 2,2,2-trifluoroacetate]	Ki	859
Cc1nnn2c1-c1ccc(-c3cnn(C)c3)cc1C(Nc1ccc(O)cc1)CC2 (centres unmarked)	Ki	78.3
COc1ccc2c(c1)C(Nc1ccc(C)cc1)CCc1onc(C)c1-2 (centres unmarked)	Ki	94.2
Cc1nnn2c1-c1ccc(-c3cnn(C)c3)cc1C(Nc1ccc3[nH]ccc3c1)CC2 (centres unmarked)	Ki	52.4
CC(=O)N1CC=C(c2ccc3c(c2)C(Nc2cc(Cl)ccc2F)CCn2nnc(C)c2-3)CC1 (centres unmarked)	Ki	106
Cc1nnn2c1-c1ccc(-c3cnn(C)c3)cc1C(Nc1ccc(C#N)cc1)CC2 (centres unmarked)	Ki	34.6
Cc1nnn2c1-c1ccc(C3=CCN(C4CCC4)CC3)cc1C(Nc1cccc(C#N)c1)CC2 (centres unmarked) [BI36, 2,2,2-trifluoroacetate]	Ki	1850
Cc1nnn2c1-c1ccc(C3=CCN(C4CCCCC4)CC3)cc1C(Nc1cccc(S(C)(=O)=O)c1)CC2 (centres unmarked) [BI57, 2,2,2-trifluoroacetate]	Ki	3610
Cc1nnn2c1-c1ccc(-c3cnn(C)c3)cc1C(N(C)c1ccc(Cl)cc1)CC2 (centres unmarked)	Ki	62.9
Cc1nnn2c1-c1ccc(C3=CCNCC3)cc1C(Nc1ccccc1CC#N)CC2 (centres unmarked) [RC82, 2,2,2-trifluoroacetate]	Ki	2370
Cc1nnn2c1-c1ccc(C3=CCN(C4CCCC4)CC3)cc1C(Nc1cccc(C#N)c1)CC2 (centres unmarked) [BI31, 2,2,2-trifluoroacetate]	Ki	2290
Cc1nnn2c1-c1ccc(C3=CCN(C(=O)C4CC4)CC3)cc1C(Nc1cccc(Cl)c1)CC2 (centres unmarked)	Ki	46.7
Cc1nnn2c1-c1ccc(C3=CCNCC3)cc1C(Nc1cccc(CC#N)c1)CC2 (centres unmarked) [RC71, 2,2,2-trifluoroacetate]	Ki	1040
Cc1nnn2c1-c1ccc(-c3cnn(C)c3)cc1C(Nc1ccc(CN(C)C)cc1)CC2 (centres unmarked)	Ki	1040
CCC(=O)N1CC=C(c2ccc3c(c2)C(Nc2ccc(Cl)cc2)CCn2nnc(C)c2-3)CC1 (centres unmarked)	Ki	14.3
Cc1nnn2c1-c1ccc(-c3cnn(C)c3)cc1C(Nc1ccccc1Cl)CC2 (centres unmarked)	Ki	51.8
Cc1nnn2c1-c1ccc(-c3ccncc3)cc1C(Nc1ccc(Cl)cc1)CC2 (centres unmarked)	Ki	73.7
Cc1nnn2c1-c1ccc(-c3cn[nH]c3)cc1C(Nc1ccc(Cl)cc1)CC2 (centres unmarked)	Ki	51.2
Cc1nnn2c1-c1ccc(C3=CCN(C4CCCC4)CC3)cc1C(Nc1cccc(S(C)(=O)=O)c1)CC2 (centres unmarked) [BI55, 2,2,2-trifluoroacetate]	Ki	3100
Cc1nnn2c1-c1ccc(-c3cnn(C)c3)cc1C(Nc1ccc(C(=O)O)cc1)CC2 (centres unmarked)	Ki	1720
CNC(=O)Cc1ccc(NC2CCn3nnc(C)c3-c3ccc(-c4cnn(C)c4)cc32)cc1 (centres unmarked) [LB42]	Ki	34.5
Cc1nnn2c1-c1ccc(-c3cnn(C)c3)cc1C(Nc1ccc(N(C)C)cc1)CC2 (centres unmarked)	Ki	236
Cc1nnn2c1-c1ccc(-c3cnn(C)c3)cc1C(Nc1ccccc1O)CC2 (centres unmarked)	Ki	74.8
CNC(=O)Cc1ccccc1NC1CCn2nnc(C)c2-c2ccc(C3=CCNCC3)cc21 (centres unmarked) [LC132, 2,2,2-trifluoroacetate]	Ki	724
Cc1nnn2c1-c1ccc(-c3cnn(C)c3)cc1C(Nc1cccc(CCN(C)C)c1)CC2 (centres unmarked)	Ki	89
Cc1cc(NC2CCn3nnc(C)c3-c3ccc(C4=CCNCC4)cc32)n(C)n1 (centres unmarked) [BJ28, 2,2,2-trifluoroacetate]	Ki	1830
Cc1nnn2c1-c1ccc(C3=CCN(C(C)C)CC3)cc1C(Nc1cccc(S(C)(=O)=O)c1)CC2 (centres unmarked) [BI60, 2,2,2-trifluoroacetate]	Ki	4740
Cc1nnn2c1-c1ccc(-c3cnn(C)c3)cc1C(Nc1cccc(OCCO)c1)CC2 (centres unmarked)	Ki	99.9
